Below, each entry is listed alongside its reported GI50.
system: SK-MEL-2; assay: NCI tumour cell line growth inhibition, 48 h
The source made the active and inactive calls. Rule as the data show it: active = GI50 up to about 1.1 µM and inactive = higher.

Recorded results for 3 compounds are shown here.
compound	GI50
C=CCN1C(=O)C/C(=C2/CCC(=O)N2CC=C)C1=O	> 100 µM (inactive)
CCOC(=O)/C(C(=S)Nc1ccccc1)=C(/N)N1CCCC1	> 100 µM (inactive)
C/C(=N/NC(=O)C[N+](C)(C)C)C(CN(C)C)C(=O)Nc1ccccc1 (stereo unspecified)	> 100 µM (inactive)

Prompt: Value wanted: GI50 (SK-MEL-2) of entry O=C(O)c1nc2cc(C(F)(F)F)ccc2[nH]c1=O
Completion: > 100 µM (inactive)

Prompt: Value wanted: GI50 (SK-MEL-2) of entry COc1cc2c(cc1OC)[C@]1(O)C(=O)c3ccc4c(c3O[C@@H]1CO2)C[C@H](C(C)(C)O)O4
Completion: > 100 µM (inactive)

Prompt: Value wanted: GI50 (SK-MEL-2) of entry CCNc1nc(N)c(C(=O)c2cccs2)s1
Completion: 16.5 µM (inactive)

###

tested on: HOP-92; test: NCI tumour cell line growth inhibition, 48 h
Calls of active or inactive are those of the source. Rule as the data show it: active = GI50 up to about 1.1 µM and inactive = higher.
Pick one and only one: 1 (yes) (active), 0 (no) (inactive)

Recorded results for 6 molecules are shown here.
molecule	class-name
O=C(O)c1nc2cc(C(F)(F)F)ccc2[nH]c1=O	0 (no)
Nc1nc2cc(COc3ccc(C(=O)O)cc3)ccc2nc1-c1ccccc1	0 (no)
C=CCN(N=O)C(=O)N(CCCCC(NC(C)=O)C(=O)NCc1ccccc1)Cc1ccccc1 (stereo unspecified)	0 (no)
Cc1cc(C(=O)NCCN(C)C)c2nc3ccccc3nc2c1	1 (yes)
Cc1nn(C(=O)c2ccc(Cl)cc2)c2c1C(c1ccco1)SC(=N)N2 (stereo unspecified)	0 (no)
CC(=O)NCC1OC2COC(c3ccccc3)OC2C2N=C(c3ccccc3)OC12 (stereo unspecified)	0 (no)

Prompt: Test call for this molecule, please: COc1ccc2nc(N/N=C/C(C)=N/Nc3cc(C)c4cc(OC)ccc4n3)cc(C)c2c1
Completion: 0 (no)

###

system: K562; experiment: NCI tumour cell line growth inhibition, 48 h
The source made the active and inactive calls. Cut-off read from the data, not from the text of the source: active = GI50 up to about 1.1 µM and inactive = higher.
Below, each entry is listed alongside its reported GI50.

Recorded results for 5 compounds are shown here.
compound	GI50
CCCCCCCCOC(=O)C12Oc3ccc(-c4ccc5c(c4O)C(=O)C4=C(O)CC(C)C(O)C4(C(=O)OCCCCCCCC)O5)c(O)c3C(=O)C1=C(O)CC(C)C2O (stereo not given)	2.93 µM (inactive)
COc1cc2c(c(OC)c1OC)-c1c(cc3c(c1OC)OCO3)CC(C)C(C)(O)C2OC(=O)c1ccccc1 (stereo not given)	46.3 µM (inactive)
[N-]=[N+]=Nc1c(-c2ccccc2)c(Cl)nc2ccccc12	45.7 µM (inactive)
O=C(CCC(=O)Nc1ccc(Cl)cc1)CC(=O)c1ccc(F)cc1	> 100 µM (inactive)
CCOC(=O)C(C)c1nc2ccc(C(F)(F)F)cc2[nH]c1=O (stereo not given)	48.5 µM (inactive)

Prompt: I would be grateful if you could share the reported GI50 for COc1ccc(N2C(=O)C3c4[nH]c5ccc(OCc6ccccc6)cc5c4C4CCC(c5ccccc5)CC4C3C2=O)cc1 (stereo not given) .
Completion: 4.37 µM (inactive)

Prompt: I would be grateful if you could share the reported GI50 for COc1cccc2[s+]snc12 .
Completion: 25.7 µM (inactive)

Prompt: I would be grateful if you could share the reported GI50 for CC1C(c2ccc(F)cc2)c2cc3c(cc2OC1N1CCCC1)OCO3 (stereo not given) .
Completion: 42 µM (inactive)

Prompt: I would be grateful if you could share the reported GI50 for C[n+]1c(-c2ccc(/C=N/Nc3ccnc(N/N=C/c4ccc(-c5cn6ccsc6[n+]5C)cc4)n3)cc2)cn2ccsc21 .
Completion: 12.1 µM (inactive)

Prompt: I would be grateful if you could share the reported GI50 for c1ccc2c(c1)Cn1c-2nc2ccccc21 .
Completion: > 100 µM (inactive)
